Assay: In vivo pharmacokinetic study in Beagle dogs
Settings: dog, plasma; male Beagle dogs, single oral dose 5 mg/kg, gelatin capsule; read-out: AUC0-24h
Method: In vivo pharmacokinetic study was carried out in Beagle dogs. Male Beagle dogs were given single oral dose of the test articles by gelatin capsule formulation at a dose of 5 mg/kg. The actual weight of the test articles in the gelatin capsule to be administered to each animal was calculated based on the body weight measured just before the administration. […] The drug concentrations in dog plasma were determined with the validated bioanalytical assay procedures. […]
Each record here notes measured AUC(0-t).
Numbers only; they are read as µg·h/mL.

| COMPOUND | RESULT_VALUE |
| --- | --- |
| CC(C)(C)c1cc2c(cc1Cl)C=C(C(=O)[O-])[C@@H](C(F)(F)F)O2.[K+] [potassium salt] | 436 |

From here, focus on the item given below.
Task item: Given the compound CC(C)(C)c1cc2c(cc1Cl)C=C(C(=O)O)[C@@H](C(F)(F)F)O2 [Compound A] , what is its reported AUC(0-t)?
Reply: 287
